The origin of these recorded values is ChEMBL document CHEMBL1151549.

Test system: HL-60
PROTOCOL_DESCRIPTION: Tested in vitro for the anticancer activity against HL-60 leukemia cells
Format: functional, cell-based
TEST_CONTEXT: Homo sapiens
ATTRIBUTE_MEASURED: IC50 (µg/mL)

chem_smiles=CC(=O)O[C@H]1C(=O)[C@@]2(C)[C@H]([C@H](OC(=O)c3ccccc3)[C@]3(O)C[C@H](OC(=O)[C@H](OP(=O)(O)OCCCCN)[C@@H](NC(=O)c4ccccc4)c4ccccc4)C(C)=C1C3(C)C)[C@]1(OC(C)=O)CO[C@@H]1C[C@@H]2O result_units=µg/mL result_number=0.3
chem_smiles=CC(=O)O[C@H]1C(=O)[C@@]2(C)[C@H]([C@H](OC(=O)c3ccccc3)[C@]3(O)C[C@H](OC(=O)[C@H](OP(=O)(O)OCCN)[C@@H](NC(=O)c4ccccc4)c4ccccc4)C(C)=C1C3(C)C)[C@]1(OC(C)=O)CO[C@@H]1C[C@@H]2O result_units=µg/mL result_number=0.8

a. CC(=O)O[C@H]1C(=O)[C@@]2(C)[C@H]([C@H](OC(=O)c3ccccc3)[C@]3(O)C[C@H](OC(=O)[C@H](OP(=O)(O)OCCCN)[C@@H](NC(=O)c4ccccc4)c4ccccc4)C(C)=C1C3(C)C)[C@]1(OC(C)=O)CO[C@@H]1C[C@@H]2O
b. CC(=O)O[C@H]1C(=O)[C@@]2(C)[C@H]([C@H](OC(=O)c3ccccc3)[C@]3(O)C[C@H](OC(=O)[C@H](O)[C@@H](NC(=O)c4ccccc4)c4ccccc4)C(C)=C1C3(C)C)[C@]1(OC(C)=O)CO[C@@H]1C[C@@H]2O
Task item: Select the item whose IC50 value is smaller, choosing between a and b . Which one? Tell me its label.
Reply: b
